target: soybean CYP71A10 (Glycine max, UniProt O48918); construct: microsomes of yeast W(R) overexpressing endogenous P450 reductase; assay: In vitro herbicide metabolism assay and enzyme kinetics, microsomes of yeast expressing CYP71A10; assay type: biochemical; details: 45 minutes at 27° C., 0.75 mM NADPH, 2.5 mg/ml microsomal protein
Sequence (O48918 1-513): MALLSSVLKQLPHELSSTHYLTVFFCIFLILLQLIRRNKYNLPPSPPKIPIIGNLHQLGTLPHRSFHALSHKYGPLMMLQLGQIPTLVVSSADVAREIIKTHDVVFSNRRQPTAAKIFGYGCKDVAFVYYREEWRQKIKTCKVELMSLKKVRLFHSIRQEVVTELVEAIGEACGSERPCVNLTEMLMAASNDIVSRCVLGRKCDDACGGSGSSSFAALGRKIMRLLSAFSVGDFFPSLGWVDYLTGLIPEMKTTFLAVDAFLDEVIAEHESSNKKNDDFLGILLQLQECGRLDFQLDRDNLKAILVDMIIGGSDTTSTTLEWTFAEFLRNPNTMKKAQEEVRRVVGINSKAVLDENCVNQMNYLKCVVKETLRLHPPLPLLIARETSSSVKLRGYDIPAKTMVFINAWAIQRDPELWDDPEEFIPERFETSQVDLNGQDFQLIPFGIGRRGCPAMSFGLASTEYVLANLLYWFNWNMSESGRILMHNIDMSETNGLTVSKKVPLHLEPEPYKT
Sequence (P16603 whole entry partner): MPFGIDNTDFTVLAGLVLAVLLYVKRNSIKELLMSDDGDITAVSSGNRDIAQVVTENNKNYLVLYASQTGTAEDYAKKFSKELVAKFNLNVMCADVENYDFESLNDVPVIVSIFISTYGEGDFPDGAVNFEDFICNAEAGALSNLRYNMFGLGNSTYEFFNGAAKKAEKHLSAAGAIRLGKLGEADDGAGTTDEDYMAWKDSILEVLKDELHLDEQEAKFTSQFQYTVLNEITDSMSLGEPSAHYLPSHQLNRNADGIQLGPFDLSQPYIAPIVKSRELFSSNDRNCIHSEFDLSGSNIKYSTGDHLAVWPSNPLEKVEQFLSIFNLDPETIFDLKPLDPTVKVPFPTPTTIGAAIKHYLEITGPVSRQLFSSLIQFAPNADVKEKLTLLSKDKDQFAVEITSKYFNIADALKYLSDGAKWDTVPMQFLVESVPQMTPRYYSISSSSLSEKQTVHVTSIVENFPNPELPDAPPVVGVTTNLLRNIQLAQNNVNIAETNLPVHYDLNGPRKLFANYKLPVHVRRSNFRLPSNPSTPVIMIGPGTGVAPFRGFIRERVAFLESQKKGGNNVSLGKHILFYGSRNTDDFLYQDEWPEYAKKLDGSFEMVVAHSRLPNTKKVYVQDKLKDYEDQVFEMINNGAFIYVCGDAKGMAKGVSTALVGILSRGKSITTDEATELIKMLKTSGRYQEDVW
VALUE TYPE: metabolites formed from the radiolabeled herbicide (TLC)

# MOLECULE, VALUE
records = [
    ("CN(C)C(=O)Nc1cccc(C(F)(F)F)c1 [Fluometuron, fluometuron]", "a single metabolite"),
    ("CN(C)C(=O)Nc1ccc(Cl)c(Cl)c1 [Diuron, diuron]", "a single metabolite"),
]

---

tested on: excised leaves of transgenic tobacco plant 25/2 progeny (CYP71A10-transformed); experiment: In vivo herbicide metabolism assay, excised leaves of CYP71A10-transformed tobacco; design: species or system Nicotiana tabacum cv SR1; conditions: after 14 hours; 1.2 nmol herbicide; standard error in parentheses; four 25/2 plants
VALUE TYPE: % of herbicide metabolized, CYP71A10-transformed

# COMPOUND, MEASURED ON, VALUE
rows = [
    ("CN(C)C(=O)Nc1ccc(Cl)c(Cl)c1 [Diuron, diuron]", "excised leaves of transgenic tobacco plant 25/2 progeny (CYP71A10-transformed)", "49 (7.0) %"),
    ("CN(C)C(=O)Nc1cccc(C(F)(F)F)c1 [Fluometuron, fluometuron]", "excised leaves of transgenic tobacco plant 25/2 progeny (CYP71A10-transformed)", "91 (4.5) %"),
    ("CON(C)C(=O)Nc1ccc(Cl)c(Cl)c1 [Linuron, linuron]", "excised leaves of transgenic tobacco plant 25/2 progeny (CYP71A10-transformed)", "87 (2.0) %"),
    ("Cc1ccc(NC(=O)N(C)C)cc1Cl [Chlortoluron, chlortoluron]", "excised leaves of transgenic tobacco plant 25/2 progeny (CYP71A10-transformed)", "85 (8.1) %"),
]

---

biological target: soybean CYP71A10 (Glycine max, UniProt O48918); construct: microsomes of yeast W(R) overexpressing endogenous P450 reductase; assay: In vitro herbicide metabolism assay and enzyme kinetics, microsomes of yeast expressing CYP71A10; type: biochemical; details: yeast microsomes containing CYP71A10; standard error in parentheses
Each entry below lists one item and its recorded Turnover value.
VALUE TYPE: Turnover

# STRUCTURE AS SMILES, MEASURED ON, VALUE TYPE, VALUE
rows = [
    ("CN(C)C(=O)Nc1cccc(C(F)(F)F)c1", "soybean CYP71A10 (Glycine max, UniProt O48918)", "Turnover", "6.8 (0.24) min^-1"),
    ("CN(C)C(=O)Nc1ccc(Cl)c(Cl)c1", "soybean CYP71A10 (Glycine max, UniProt O48918)", "Turnover", "0.4 (0.04) min^-1"),
    ("CON(C)C(=O)Nc1ccc(Cl)c(Cl)c1", "soybean CYP71A10 (Glycine max, UniProt O48918)", "Turnover", "2.8 (0.27) min^-1"),
    ("Cc1ccc(NC(=O)N(C)C)cc1Cl", "soybean CYP71A10 (Glycine max, UniProt O48918)", "Turnover", "0.7 (0.05) min^-1"),
]

---

Test system: excised leaves of control tobacco plants transformed with pBI121
Experiment: In vivo herbicide metabolism assay, excised leaves of control tobacco
Design: species or system Nicotiana tabacum cv SR1
Settings: after 14 hours; 1.2 nmol herbicide; standard error in parentheses; three pBI121 control plants
Procedure: Seeds from primary transgenic tobacco plants transformed with CYP71A10 and control plants transformed with the pBI121 vector were grown in Petri dishes containing MS salts and 100 μg/ml kanamycin. At five weeks post-seeding, kanamycin-resistant plantlets were transplanted into pots containing soil and grown an additional two weeks. Single leaves of approximately 10 cm^2 in size were excised and their petioles inserted into 100 μl of H2 O containing radiolabeled herbicide. […]
Each entry below lists one item and its recorded % of herbicide metabolized, Control value.
VALUE TYPE: % of herbicide metabolized, Control

# STRUCTURE AS SMILES, VALUE TYPE, VALUE
measured = [
    ("CN(C)C(=O)Nc1cccc(C(F)(F)F)c1", "% of herbicide metabolized, Control", "15 (0.6) %"),
    ("Cc1ccc(NC(=O)N(C)C)cc1Cl", "% of herbicide metabolized, Control", "39 (7.5) %"),
    ("CON(C)C(=O)Nc1ccc(Cl)c(Cl)c1", "% of herbicide metabolized, Control", "12 (2.6) %"),
    ("CN(C)C(=O)Nc1ccc(Cl)c(Cl)c1", "% of herbicide metabolized, Control", "20 (2.0) %"),
]
